Target: immobilized ERRγ ligand binding domain (Homo sapiens, UniProt P62508)
Sequence (P62508 233-457 limits assumed): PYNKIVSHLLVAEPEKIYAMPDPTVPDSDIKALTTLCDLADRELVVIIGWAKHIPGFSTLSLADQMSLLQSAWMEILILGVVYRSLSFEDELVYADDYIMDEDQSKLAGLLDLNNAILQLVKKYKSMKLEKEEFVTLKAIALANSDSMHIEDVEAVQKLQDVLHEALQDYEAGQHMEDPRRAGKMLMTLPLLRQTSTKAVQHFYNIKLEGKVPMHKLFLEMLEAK
Readout Name: pKd
Note on units: pKd is unitless, being -log10 of a concentration expressed in mol/L.

If you can, please state the reported pKd value of CC/C(=C(\c1ccc(O)cc1)c1ccc(OCCNC)cc1)c1ccccc1 [Endoxifen] .
7.36
